Biological target: UniProtKB P32316
Sequence (P32316 1-526): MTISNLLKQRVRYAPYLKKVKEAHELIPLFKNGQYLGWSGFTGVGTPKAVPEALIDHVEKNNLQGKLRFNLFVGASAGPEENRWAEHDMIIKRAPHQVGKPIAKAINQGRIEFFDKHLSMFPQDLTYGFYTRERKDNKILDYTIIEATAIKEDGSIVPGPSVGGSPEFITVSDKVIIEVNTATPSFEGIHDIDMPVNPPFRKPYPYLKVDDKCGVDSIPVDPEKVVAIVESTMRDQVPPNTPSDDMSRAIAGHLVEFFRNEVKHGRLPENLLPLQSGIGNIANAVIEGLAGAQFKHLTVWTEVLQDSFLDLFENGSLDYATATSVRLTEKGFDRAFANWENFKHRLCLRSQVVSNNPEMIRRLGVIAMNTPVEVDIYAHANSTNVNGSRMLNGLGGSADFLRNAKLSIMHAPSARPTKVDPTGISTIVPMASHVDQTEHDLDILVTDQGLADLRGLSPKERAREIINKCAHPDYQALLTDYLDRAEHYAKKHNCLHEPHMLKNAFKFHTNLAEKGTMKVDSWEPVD
Test: biochemical
Assay type: biochemical
Details: 0.25 h, read-out: Enzyme Activity (%)
observable: remaining activity at 1000 µM (%)
Use % as the unit, but write only the number.

For this molecule ( C[S+](C)Cc1cc([N+](=O)[O-])ccc1O.[Br-] ), measured remaining activity at 1000 µM is 84

molecule O=C(O)CI , remaining activity at 1000 µM observed: 99

Form field remaining activity at 1000 µM, entry O=C1CCC(=O)O1 [Succinic anhydride] : 95

// remaining activity at 1000 µM lookup, molecule = NC(=O)CI [IAM, iodoacetamide] , result: 97

Lookup result for CCN1C(=O)C=CC1=O [NEM, N-ethylmaleimide] ; measured remaining activity at 1000 µM: 94

Kindly note the recorded remaining activity at 1000 µM for CC(=O)n1ccnc1 , which is 101

====

Target: Acetyl-CoA Hydrolase from S. cerevisiae (Saccharomyces cerevisiae, UniProt P32316)
Sequence (P32316 1-526): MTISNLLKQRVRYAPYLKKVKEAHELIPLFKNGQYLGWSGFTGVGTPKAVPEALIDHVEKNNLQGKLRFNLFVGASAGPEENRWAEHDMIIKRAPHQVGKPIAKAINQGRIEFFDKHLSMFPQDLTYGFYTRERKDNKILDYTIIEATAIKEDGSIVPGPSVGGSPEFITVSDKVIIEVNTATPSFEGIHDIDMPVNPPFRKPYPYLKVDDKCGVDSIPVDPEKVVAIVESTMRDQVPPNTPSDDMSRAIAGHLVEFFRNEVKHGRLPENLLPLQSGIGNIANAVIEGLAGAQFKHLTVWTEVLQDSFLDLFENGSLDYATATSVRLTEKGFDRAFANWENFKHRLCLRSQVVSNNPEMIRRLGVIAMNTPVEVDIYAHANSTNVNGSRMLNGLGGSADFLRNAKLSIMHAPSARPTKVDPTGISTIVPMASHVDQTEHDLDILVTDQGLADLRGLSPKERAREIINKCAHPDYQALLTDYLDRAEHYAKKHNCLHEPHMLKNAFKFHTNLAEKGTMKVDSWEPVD
Assay: biochemical
Conditions: addition 10 mM; 100 mM potassium phosphate, pH 7.4; None = 100
Note to self: values exactly at 80% are fulfilled. So Enzyme Activity (%) at or above 80% is fulfilled, below is not fulfilled.

### Prompt Determine whether this molecule has Enzyme Activity (%) no lower than 80%: [Ca+2].[Cl-].[Cl-]
### Response fulfilled

### Prompt Test whether the molecule O=S(=O)([O-])[O-].[Mg+2] records Enzyme Activity (%) of 80% or higher.
### Response not fulfilled

### Prompt Record [Cl][Cd][Cl] ; criterion: Enzyme Activity (%) no lower than 80%. Met?
### Response not fulfilled

### Prompt Assess whether reported Enzyme Activity (%) for O=S(=O)([O-])[O-].[Cu+2] sits at 80% or higher.
### Response fulfilled

### Prompt Could you verify whether the entry [Cl-].[Cl-].[Mg+2] shows Enzyme Activity (%) of no less than 80%?
### Response not fulfilled

### Prompt Exam item: decide whether the reported Enzyme Activity (%) for O=S(=O)([O-])[O-].[Fe+2] is at least 80%.
### Response fulfilled

### Prompt Determine whether this molecule has Enzyme Activity (%) no lower than 80%: [Cl-].[Cl-].[Co+2]
### Response not fulfilled

### Prompt Reported Enzyme Activity (%) at or above 80%? [Cl][Mn][Cl]
### Response not fulfilled

### Prompt # bool: Enzyme Activity (%) of O=S(=O)([O-])[O-].[Zn+2] >= 80%
### Response not fulfilled

All values here come from patent US5487990A.
